# target or test system: T1, CEACAM5 (CD66e) on tumour cells (human, UniProt P06731 35-685, glycosylated (natural, as on tumour cells))
# T1 construct: whole, on cells; One molecule for CEACAM5 on all three cell lines; the cell line is named under assay; also called natural CEACAM5 antigen; Lovo cells
# T1 sequence (looked up): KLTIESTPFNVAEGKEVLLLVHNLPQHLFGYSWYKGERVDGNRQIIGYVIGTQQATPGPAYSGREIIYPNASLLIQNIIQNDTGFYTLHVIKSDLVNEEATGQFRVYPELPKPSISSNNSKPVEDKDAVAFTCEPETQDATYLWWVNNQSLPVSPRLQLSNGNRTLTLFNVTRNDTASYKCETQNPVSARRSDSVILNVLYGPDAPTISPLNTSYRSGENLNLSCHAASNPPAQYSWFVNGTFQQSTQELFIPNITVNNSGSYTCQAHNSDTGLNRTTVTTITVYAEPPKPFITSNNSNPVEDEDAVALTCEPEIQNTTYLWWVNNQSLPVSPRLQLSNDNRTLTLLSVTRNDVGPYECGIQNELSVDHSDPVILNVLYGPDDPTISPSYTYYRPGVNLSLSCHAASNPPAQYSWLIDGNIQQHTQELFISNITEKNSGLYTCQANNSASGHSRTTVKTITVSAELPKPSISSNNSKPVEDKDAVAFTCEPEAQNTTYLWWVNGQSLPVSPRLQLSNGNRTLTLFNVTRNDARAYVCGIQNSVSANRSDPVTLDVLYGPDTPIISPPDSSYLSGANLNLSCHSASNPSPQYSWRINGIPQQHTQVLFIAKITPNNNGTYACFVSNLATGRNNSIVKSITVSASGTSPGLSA
# procedure text: flow cytometry on KATO3 cells, anti-human IgG Fc-APC
assay readout: Emax (%)
State just the number; it will be interpreted in %.

Some entries whose results are on file:
- binder: "Humanized antibody hAb-016 (antibody, V domains shown, also called hM19-14) VH: EVQLVESGGGLVQPGGSLRLSCAASGFTFTDYYMDWVRQAPGKALEWVGFTRNKVNGDTTEYAASVKGRFTISRDDSKNSLYLQMNSLKTEDTAVYYCARDKGIAYYFDYWGQGTLVTVSS VL: EIVLTQSPGTLSASPGERATLSCRASSSVSYIHWYQQKPGQSPRPLIYGTSNLASGVPDRFSGSGSGTDFTLTISRLEPEDAAVYYCQQWSSNLSTFGGGTKVEIK"
  unit tag: "%"
  Emax: 48.4
- binder: "Humanized antibody hAb-013 (antibody, V domains shown, also called hM19-11) VH: EVQLVESGGGLVQPGGSLRLSCAASGFTFTDYYMDWVRQAPGKALEWVGFTRNKVNGDTTEYAASVKGRFTISRDDSKNSLYLQMNSLKTEDTAVYYCARDKGIAYYFDYWGQGTLVTVSS VL: QIVLTQSPATLSASPGERATLSCRASSSVSYIHWYQQKPGQSPRPLIYGTSNLASGVPARFSGSGSGTDFTLTISSLEPEDAAVYYCQQWSSNLSTFGGGTKVEIK"
  unit tag: "%"
  Emax: 49.3
- binder: "Humanized antibody hAb-006 (antibody, V domains shown, also called hM19-4) VH: EVQLVESGGGLVQPGGSLRLSCAASGFTFTDYYMNWVRQAPGKGLEWLGFIRNKVNGDTTEYSASVKGRFTISRDISKNSLYLQMNSLKTEDTAVYYCARDKGIAYYFDYWGQGTLVTVSS VL: DIVLSQSPGTLSLSPGERATLSCRASSSVSYIHWYQQKPGQAPRPWIHGTSNLASGIPDRFSGSGSGTDYTLTISRLEPEDFAVYYCQQWSSNLSTFGGGTKVEIK"
  unit tag: "%"
  Emax: 118
- binder: "Humanized antibody hAb-005 (antibody, V domains shown, also called hM19-3) VH: EVQLVESGGGLVQPGGSLRLSCAASGFTFTDYTMSWVRQAPGKALEWVGFIRNKVNGDTTEYSDSVEGRFTISRDNSKNTLYLQMNSLRAEDTAVYYCARDKGIAYYFDYWGQGTLVTVSS VL: DIQLTQSPSSLSASVGDRVTITCRASSSVSYIHWYQQKPGKSPKPWIYGTSNLASGVPSRFSGSGSGTDYTLTISSLQPEDAATYYCQQWSSNLSTFGQGTKVEIK"
  unit tag: "%"
  Emax: 9.1

// below: Emax requested for another binder
Request: Answer with the recorded Emax of Humanized antibody hAb-009 (antibody, V domains shown, also called hM19-7) VH: EVQLVESGGGLVQPGGSLRLSCAASGFTFTDYYMNWVRQAPGKALEWLGFIRNKVNGDTTEYAASVKGRFTISRDDSKNSLYLQMNSLKTEDTAVYYCARDKGIAYYFDYWGQGTLVTVSS VL: EIVLTQSPATLSASPGERATLSCRASQSVSYIHWYQQKPGQSPRPWIHGTSNLATGVPARFSGSGSGTDFTLTISSLEPEDAAVYYCQQWSSNLSTFGGGTKVEIK only.
Response: 109
